Counter-ions that a name gives are not always drawn.
Reported melting point values for the following compounds.

Solved entries:
compound	melting point
COc1ccc(CCOCCN2CCC(N(C)C3=Nc4ccccc4CS3)CC2)cc1.O=C(O)/C=C/C(=O)O	152 to 153 °C
CN(C1=Nc2ccccc2CS1)C1CCN(CCCOCCc2ccc(F)cc2)CC1 (as salt: fumarate)	163 to 164 °C
CN(C1=Nc2ccccc2CS1)C1CCN(CCCOCc2ccc(F)c(F)c2)CC1.O=C(O)/C=C/C(=O)O	168 °C

melting point in this record for CN(C1=Nc2ccccc2CS1)C1CCN(CCCOCCc2ccc(F)c(F)c2)CC1.O=C(O)/C=C/C(=O)O : 162 °C

====

Reported inhibition at 0.1 µM values for the following compounds.
# System: rat isolated left atrium
# methodNotes: Inhibition of the contracture with veratrine, rat isolated left atrium
# recordedConditions: veratrine-induced contracture, 10^−7 M of test compound
Structures can show the parent of a compound that is named as a salt.
Could you give me the number in %? Just the number is fine.

compound	unitAbbrev	inhibition at 0.1 µM
CN(C1=Nc2ccccc2CS1)C1CCN(CCCCOc2ccc(F)c(F)c2)CC1 [Control]	%	26
CN(C1=Nc2ccccc2CS1)C1CCN(CCCOCCc2ccc(F)cc2)CC1 [Example 6, Fumarate]	%	41
CN(c1nc2ccccc2s1)C1CCN(CCCCOc2ccc(F)cc2)CC1	%	32

inhibition at 0.1 µM in this record for CN(C1=Nc2ccccc2CS1)C1CCN(CCCCOCCc2ccc(F)cc2)CC1.O=C(O)/C=C/C(=O)O [Example 5, Fumarate] : 63

inhibition at 0.1 µM in this record for CN(c1nc2ccccc2s1)C1CCN(CC(O)COc2ccc(F)cc2)CC1 (stereo not drawn) : 5

inhibition at 0.1 µM in this record for CN(C1=Nc2ccccc2CS1)C1CCN(CCCOCCc2ccc(F)c(F)c2)CC1.O=C(O)/C=C/C(=O)O [Example 14, Fumarate] : 32

====

Reported melting point values for the following compounds.
Could you give me the number in °C? Just the number is fine.

melting point in this record for COc1cc2c(c(OC)c1OC)N=C(N(C)C1CCN(CCCOCCc3ccc(F)cc3)CC1)SC2.O=C(O)/C=C/C(=O)O : 68

melting point in this record for COc1ccc(CCOCCCCN2CCC(N(C)C3=Nc4ccccc4CS3)CC2)cc1.O=C(O)/C=C/C(=O)O : 156

====

Reported melting point values for the following compounds.
Counter-ions that a name gives are not always drawn.

compound	melting point
COc1ccc(COCCCCCN2CCC(N(C)C3=Nc4ccccc4CS3)CC2)cc1.O=C(O)/C=C/C(=O)O	163 °C

melting point in this record for CN(C1=Nc2ccccc2CS1)C1CCN(CCCCOCCc2ccc(F)cc2)CC1.O=C(O)/C=C/C(=O)O [Example 5] : 173 to 174 °C

melting point in this record for COc1ccc(CCOCC(O)CN2CCC(N(C)C3=Nc4ccccc4CS3)CC2)cc1.O=C(O)/C=C/C(=O)O (stereo not shown) : 132 to 133 °C

melting point in this record for CN(C1=Nc2ccccc2CS1)C1CCN(CCCCOCc2ccc(F)c(F)c2)CC1.O=C(O)/C=C/C(=O)O : 170 °C

melting point in this record for CN(C1=Nc2ccccc2CS1)C1CCN(CCCOCc2ccc(F)cc2)CC1.O=C(O)/C=C/C(=O)O : 163 to 164 °C

melting point in this record for CN(C1=Nc2ccccc2CS1)C1CCN(CCCCCOCc2ccc(F)cc2)CC1.O=C(O)/C=C/C(=O)O : 167 °C

melting point in this record for COc1ccc(COCCCN2CCC(N(C)C3=Nc4ccccc4CS3)CC2)cc1.O=C(O)/C=C/C(=O)O : 166 °C

melting point in this record for Fc1ccc(CCOCCCN2CCC(NC3=Nc4ccccc4CO3)CC2)cc1 (as salt: hydrochloride) (hydrate or solvate) [Example 30, Dihydrochloride Hydrate] : 158 to 159 °C

melting point in this record for CN(C1=Nc2ccccc2CS1)C1CCN(CCOCc2ccc(F)cc2)CC1.O=C(O)/C=C/C(=O)O : 160 to 161 °C

melting point in this record for CN(C1=Nc2ccccc2CS1)C1CCN(CCCOCCCc2ccc(F)cc2)CC1.O=C(O)/C=C/C(=O)O : 176 °C
